Tested on: norepinephrine-induced mortality
test details: combined test in rats: norepinephrine (NOR)
Type: in vivo, rat (adult male Wistar rats)
condition label: Rattus norvegicus, sc, 2 h; norepinephrine 1.25 mg/kg i.v. at 120 minutes; dose protecting 50% of animals
parameter: ED50
Entry format: amount then unit.

* Cc1nc2sccn2c(=O)c1CCN1CCC(c2noc3cc(F)ccc23)CC1 | 0.31 mg/kg
* Cc1nc2n(c(=O)c1CCN1CCC(c3noc4cc(F)ccc34)CC1)CCCS2 | 0.31 mg/kg
* Cc1nc2n(c(=O)c1CCN1CCC(c3noc4cc(F)ccc34)CC1)CCCC2 | 0.16 mg/kg

QUERY: Quick one: ED50 for `Cc1nc2scc(C)n2c(=O)c1CCN1CCC(c2noc3cc(F)ccc23)CC1` ?
RESULT: 0.08 mg/kg

QUERY: Moving on to `Cc1nc2ccccn2c(=O)c1CCN1CCC(c2noc3cc(F)ccc23)CC1`
RESULT: 0.16 mg/kg

QUERY: Also `Cc1nc2n(c(=O)c1CCN1CCC(c3noc4cc(F)ccc34)CC1)CCS2` , if possible.
RESULT: 0.31 mg/kg

###

The following compounds are listed with their measured ED50 values.
System: apomorphine-induced agitation and stereotypic chewing
test details: combined test in rats: apomorphine (APO)
Assay type: in vivo, rat (adult male Wistar rats)
condition label: Rattus norvegicus, sc, 0.5 h; s.c.; apomorphine 1.25 mg/kg i.v. 30 minutes after treatment; dose protecting 50% of animals; read-out: ED50 (APO)--rat
Field: numeric (mg/kg). Do not append units.

Below, 4 compounds whose answers are already recorded.
• Cc1nc2sccn2c(=O)c1CCN1CCC(c2noc3cc(F)ccc23)CC1 [Compound 2] = 0.02
• Cc1nc2n(c(=O)c1CCN1CCC(c3noc4cc(F)ccc34)CC1)CCS2 [Compound 14] = 0.02
• Cc1nc2scc(C)n2c(=O)c1CCN1CCC(c2noc3cc(F)ccc23)CC1 [Compound 13] = 0.02
• Cc1nc2n(c(=O)c1CCN1CCC(c3noc4cc(F)ccc34)CC1)CCCS2 [Compound 15] = 0.08

Now examine the next entry.
QUERY: // ED50 lookup, key: Cc1nc2ccccn2c(=O)c1CCN1CCC(c2noc3cc(F)ccc23)CC1 [Compound 11]
RESULT: 0.02
